- experimental_target: SMARCA4 (Homo sapiens)
- Sequence (P51532 whole entry): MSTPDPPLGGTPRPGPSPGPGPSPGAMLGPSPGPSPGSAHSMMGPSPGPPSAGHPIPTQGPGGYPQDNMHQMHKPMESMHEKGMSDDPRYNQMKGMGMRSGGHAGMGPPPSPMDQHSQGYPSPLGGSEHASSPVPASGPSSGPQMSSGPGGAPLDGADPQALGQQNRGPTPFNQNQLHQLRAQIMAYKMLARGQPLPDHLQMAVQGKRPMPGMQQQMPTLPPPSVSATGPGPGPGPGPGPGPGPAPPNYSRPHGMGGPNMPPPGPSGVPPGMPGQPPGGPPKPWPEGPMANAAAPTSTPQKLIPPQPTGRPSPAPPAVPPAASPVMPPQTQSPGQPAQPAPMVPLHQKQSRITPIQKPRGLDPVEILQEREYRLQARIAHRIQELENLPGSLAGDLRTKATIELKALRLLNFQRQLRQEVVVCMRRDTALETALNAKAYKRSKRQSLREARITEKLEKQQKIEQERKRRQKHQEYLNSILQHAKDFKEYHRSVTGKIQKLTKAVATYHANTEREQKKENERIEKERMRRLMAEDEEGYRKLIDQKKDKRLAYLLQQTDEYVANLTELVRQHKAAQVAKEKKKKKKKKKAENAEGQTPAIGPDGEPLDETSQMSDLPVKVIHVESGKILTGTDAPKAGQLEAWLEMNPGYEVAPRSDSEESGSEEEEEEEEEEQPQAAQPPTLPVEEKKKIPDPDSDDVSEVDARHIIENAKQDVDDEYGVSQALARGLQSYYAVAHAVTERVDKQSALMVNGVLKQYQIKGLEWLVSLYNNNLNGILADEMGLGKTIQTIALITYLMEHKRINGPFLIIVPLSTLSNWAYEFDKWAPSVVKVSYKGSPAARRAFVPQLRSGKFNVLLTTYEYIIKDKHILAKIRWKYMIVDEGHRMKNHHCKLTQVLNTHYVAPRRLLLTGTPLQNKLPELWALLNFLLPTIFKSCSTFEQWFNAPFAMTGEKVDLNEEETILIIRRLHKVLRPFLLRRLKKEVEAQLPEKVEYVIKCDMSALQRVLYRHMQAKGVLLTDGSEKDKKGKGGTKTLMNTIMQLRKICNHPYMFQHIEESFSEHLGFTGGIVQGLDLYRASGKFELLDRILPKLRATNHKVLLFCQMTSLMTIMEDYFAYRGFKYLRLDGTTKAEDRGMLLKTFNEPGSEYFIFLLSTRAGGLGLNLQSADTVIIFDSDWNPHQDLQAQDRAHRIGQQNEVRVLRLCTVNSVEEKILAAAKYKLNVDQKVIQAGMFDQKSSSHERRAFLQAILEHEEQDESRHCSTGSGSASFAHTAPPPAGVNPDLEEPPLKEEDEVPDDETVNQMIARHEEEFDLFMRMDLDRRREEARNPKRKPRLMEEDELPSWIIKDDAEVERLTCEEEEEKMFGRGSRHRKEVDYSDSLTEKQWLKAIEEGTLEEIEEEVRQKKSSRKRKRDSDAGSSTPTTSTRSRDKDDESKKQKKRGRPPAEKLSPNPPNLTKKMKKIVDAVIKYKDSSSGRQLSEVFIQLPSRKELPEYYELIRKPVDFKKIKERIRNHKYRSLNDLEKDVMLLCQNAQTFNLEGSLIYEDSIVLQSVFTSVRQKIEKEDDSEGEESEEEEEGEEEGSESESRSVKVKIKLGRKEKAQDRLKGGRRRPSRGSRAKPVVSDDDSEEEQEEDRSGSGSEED
- test: SMARCA4 capillary electrophoresis protein assay in RKO cells
- Format: cell-based
- Parameters: endogenous in cells; host or cells: RKO, HCT116, LU99, HCC-364, HCT-15, HCC4006, SK-N-AS
- setup_conditions: RKO (4 h); mean ± SD
// values below are reported DC50

>  <compound>
Nc1cccc2c1c(=O)nc1n(C3CCCC3)c3ccccc3n21 [compound 2]

>  <DC50>
> 25000 nM

$$$$
>  <compound>
Cc1ncsc1-c1ccc(C(CCC(C)CCN2CCC(c3ccc4c(c3)n(C3CCCC3)c3nc(=O)c5c(Br)cccc5n43)CC2)NC(=O)C2CC(O)CN2C(=O)C(NC(=O)C2(F)CC2)C(C)(C)C)cc1 (stereo not shown) [ACBI2]

>  <DC50>
> 25000 nM

$$$$
>  <compound>
Cc1ncsc1-c1ccc([C@H](CCCCCN2CCC(c3ccc4c(c3)n(C3CCCC3)c3nc(=O)c5c(Br)cccc5n43)CC2)NC(=O)[C@@H]2C[C@@H](O)CN2C(=O)[C@@H](NC(=O)C2(F)CC2)C(C)(C)C)cc1 [compound 11]

>  <DC50>
15 nM

$$$$
>  <compound>
CN1CCN(c2nc(=O)c3c(I)cccc3o2)CC1 [compound 16]

>  <DC50>
> 25000 nM

$$$$
>  <compound>
Cc1ncsc1-c1ccc([C@H](CC[C@@H](C)CCN2CCC(c3ccc4c(c3)n(C3CCCC3)c3nc(=O)c5c(Br)cccc5n43)CC2)NC(=O)[C@@H]2C[C@@H](O)CN2C(=O)[C@@H](NC(=O)C2(F)CC2)C(C)(C)C)cc1 [compound 29]

>  <DC50>
15 nM

$$$$
>  <compound>
Cc1ncsc1-c1ccc([C@H](COC(C)(C)CN2CCC(c3ccc4c(c3)n(C3CCCC3)c3nc(=O)c5c(Br)cccc5n43)CC2)NC(=O)[C@@H]2C[C@@H](O)CN2C(=O)[C@@H](NC(=O)C2(F)CC2)C(C)(C)C)cc1 [compound 28]

>  <DC50>
> 25000 nM

$$$$
>  <compound>
CN1CCN(c2nc(=O)c3ccccc3o2)CC1 [compound 14]

>  <DC50>
> 25000 nM

$$$$
>  <compound>
CN1CCN(c2nc(=O)c3c(Cl)cccc3o2)CC1 [compound 13]

>  <DC50>
> 25000 nM

$$$$
>  <compound>
Cc1ncsc1-c1ccc([C@H](CC[C@H](C)CCN2CCC(c3ccc4c(c3)n(C3CCCC3)c3nc(=O)c5c(Br)cccc5n43)CC2)NC(=O)[C@@H]2C[C@H](O)CN2C(=O)[C@@H](NC(=O)C2(F)CC2)C(C)(C)C)cc1 [compound 12]

>  <DC50>
> 25000 nM

$$$$
>  <compound>
Cc1ncsc1-c1ccc(CNC(=O)[C@@H]2C[C@@H](O)CN2C(=O)[C@@H](NC(=O)C2(F)CC2)C(C)(C)C)c(OCCOCCOCCN2CCC(c3ccc4c(c3)n(C3CCCC3)c3nc(=O)c5c(Br)cccc5n43)CC2)c1 [compound 21]

>  <DC50>
21 nM

$$$$
>  <compound>
CN1CCC(c2ccc3c(c2)n(C2CCCC2)c2nc(=O)c4c(Br)cccc4n32)CC1 [compound 3]

>  <DC50>
> 25000 nM

$$$$
>  <compound>
Cc1ncsc1-c1ccc([C@H](COCCN2CCC(c3ccc4c(c3)n(C3CCCC3)c3nc(=O)c5c(Br)cccc5n43)CC2)NC(=O)[C@@H]2C[C@@H](O)CN2C(=O)[C@@H](NC(=O)C2(N(C)C)CC2)C(C)(C)C)cc1 [compound 26]

>  <DC50>
81 nM

$$$$
>  <compound>
Cc1ncsc1-c1ccc(CNC(=O)[C@@H]2C[C@@H](O)CN2C(=O)[C@@H](NC(=O)C2(F)CC2)C(C)(C)C)c(OCCOCCOCCOCCN2CCC(c3ccc4c(c3)n(C3CCCC3)c3nc(=O)c5c(Br)cccc5n43)CC2)c1 [compound 22]

>  <DC50>
54 nM

$$$$

The reported measurements were obtained from paper PMC9551036.
